Provenance of the data: paper PMC6045484

Hi there, I'd appreciate the recorded MIC, SA for every entry that follows.
- Tested on: SA (ATCC29213)
- procedure_summary: in vitro antibacterial activity
- Type: cell-based
- experimental_setup: Staphylococcus aureus; highest test concentration 20 μg/mL
One number for each entry, in µg/mL.

compound: CCCCCCOc1c(OC)cc(NC(C)CCCNC(=O)C2CCCN2)c2nc(C(C)(C)C)ccc12 (stereo not shown) [compound 103]
system_under_test: SA (ATCC29213)
unit_label: µg/mL
endpoint_value: 5.00

I am curious: what MIC, SA value has been reported for CCCCCCCOc1c(OC)cc(NC(C)CCCNC(=O)C2CCCN2)c2nc(C(C)(C)C)ccc12 (stereo not shown) [compound 113] ?
10.00

###

- System: C. neoformans ATCC90113
- procedure_summary: in vitro antifungal activity
- Format: cell-based, Cryptococcus neoformans
- experimental_setup: Cryptococcus neoformans, ATCC90113, read-out: C. neoformans MFC
Hi there, I'd appreciate the recorded MFC for every entry that follows.
Give bare numbers, in µg/mL.

Consider the reported MFC for these compounds:
compound: CCCCCCCOc1c(OC)cc(NC(C)CCCNC(=O)C(N)Cc2ccccc2)c2nc(C(C)(C)C)ccc12 (centres unmarked) [compound 112]
MFC [µg/mL]: 5
//
compound: CCCCCCOc1c(OC)cc(NC(C)CCCN)c2nc(C(C)(C)C)cc(C)c12 (centres unmarked) [compound 52]
MFC [µg/mL]: 2.5
//
compound: CCCCCCCCOc1c(OC)cc(NC(C)CCCNC(=O)C(N)CCSC)c2nc(C(C)(C)C)ccc12 (centres unmarked) [compound 120]
MFC [µg/mL]: 5

API: the following record is the query input.
Form entry - test system: C. neoformans ATCC90113; read-out: MFC; compound: CCCCOc1c(OC)cc(NC(C)CCCN)c2nc(C(C)(C)C)cc(C)c12 (centres unmarked) [compound 50]
2.5

###

Below are MIC values recorded for C. neoformans ATCC90113.
One number for each entry, in µg/mL.

Dear reader, for each entry below, please note its MIC.
1. CCCCCCOc1c(OC)cc(NC(C)CCCN)c2nc(C(C)(C)C)ccc12 (centres unmarked) [compound 47]
2. CCCCCCOc1c(OC)cc(NC(C)CCCNC(=O)C(N)Cc2cc3ccccc3[nH]2)c2nc(C(C)(C)C)ccc12 (centres unmarked) [compound 108]
3. CCCCCOc1c(OC)cc(NC(C)CCCNC(=O)C(N)C(C)CC)c2nc(C(C)(C)C)ccc12 (centres unmarked) [compound 96]
4. COc1cc(NC(C)CCCN)c2nc(C(C)(C)C)ccc2c1Oc1ccc(Cl)c(Cl)c1 (centres unmarked) [compound 55]
5. CCCCCOc1c(OC)cc(NC(C)CCCNC(=O)C(N)Cc2cc3ccccc3[nH]2)c2nc(C(C)(C)C)ccc12 (centres unmarked) [compound 98]

1. 5
2. 10
3. 10
4. 5
5. 2.5

Dear reader, for each entry below, please note its MIC.
1. CCCCCCCOc1c(OC)cc(NC(C)CCCNC(=O)C(N)Cc2cc3ccccc3[nH]2)c2nc(C(C)(C)C)ccc12 (centres unmarked) [compound 115]
2. C[C@@H]1[C@H](O)[C@@H](C)/C=C/C=C/C=C/C=C/C=C/C=C/C=C/[C@H](O[C@@H]2O[C@H](C)[C@@H](O)[C@H](N)[C@@H]2O)C[C@@H]2O[C@](O)(C[C@@H](O)C[C@@H](O)[C@H](O)CC[C@@H](O)C[C@@H](O)CC(=O)O[C@H]1C)C[C@H](O)[C@H]2C(=O)O [amphotericin B (AMP), amphotericin B, reference compound]

2.5
0.63

###

- System: MRSA (ATCC33591)
- procedure_summary: in vitro antibacterial activity
- Format: cell-based, methicillin-resistant Staphylococcus aureus
- experimental_setup: Staphylococcus aureus, ATCC33591|MRSA, read-out: MIC, MRSA
metric_name: MIC (mg/L)
Numbers only, in mg/L.

compound: CCCCCCCOc1c(OC)cc(NC(C)CCCNC(=O)C(N)Cc2ccccc2)c2nc(C(C)(C)C)ccc12 (stereo not drawn)
unit_label: mg/L
MIC: 10
//
compound: CCCCCCCCOc1c(OC)cc(NC(C)CCCNC(=O)C2CCCN2)c2nc(C(C)(C)C)ccc12 (stereo not drawn)
unit_label: mg/L
MIC: 10

Form entry - test system: MRSA (ATCC33591); read-out: MIC; compound: O=C(O)c1cn(C2CC2)c2cc(N3CCNCC3)c(F)cc2c1=O [ciprofloxacin, reference compound]
0.25

###

Hi there, I'd appreciate the recorded C. neoformans MIC for every entry that follows.
- Test system: C. neoformans ATCC90113
- procedure_summary: in vitro antifungal activity
- Type: cell-based, Cryptococcus neoformans
One number for each entry, in µg/mL.

compound: CCCCCCOc1c(OC)cc(NC(C)CCCNC(=O)C2CCCN2)c2nc(C(C)(C)C)ccc12 (stereo not shown)
metric_name: C. neoformans MIC
endpoint_value: 2.50

API: the following record is the query input.
I am curious: what C. neoformans MIC value has been reported for CCCCCCCOc1c(OC)cc(NC(C)CCCNC(=O)C2CCCN2)c2nc(C(C)(C)C)ccc12 (stereo not shown) ?
5.00

###

Hi there, I'd appreciate the recorded MBC (minimum bactericidal concentration), SA for every entry that follows.
- Test system: SA (ATCC29213)
- procedure_summary: in vitro antibacterial activity
- Type: cell-based
- experimental_setup: Staphylococcus aureus; highest test concentration 20 μg/mL
Numbers only, in µg/mL.

molecule: CCCCCCCOc1c(OC)cc(NC(C)CCCNC(=O)C2CCCN2)c2nc(C(C)(C)C)ccc12 (stereo not shown)
unit_label: µg/mL
endpoint_value: 10.00

API: the following record is the query input.
I am curious: what MBC (minimum bactericidal concentration), SA value has been reported for CCCCCCOc1c(OC)cc(NC(C)CCCNC(=O)C2CCCN2)c2nc(C(C)(C)C)ccc12 (stereo not shown) ?
10.00

###

- Test system: C. albicans ATCC90028
- procedure_summary: in vitro antifungal activity
- Assay type: cell-based, Candida albicans
- experimental_setup: Candida albicans, ATCC90028, read-out: C. albicans IC50
metric_name: IC50

Consider the reported IC50 for these compounds:
compound: CCCCCCCOc1c(OC)cc(NC(C)CCCNC(=O)C(N)Cc2ccccc2)c2nc(C(C)(C)C)ccc12 (stereo not drawn)
IC50: > 20 mg/L
//
compound: CCCCCCCCOc1c(OC)cc(NC(C)CCCN)c2nc(C(C)(C)C)ccc12 (stereo not drawn)
IC50: 7.44 mg/L

API: the following record is the query input.
I am curious: what IC50 value has been reported for CCCCCCOc1c(OC)cc(NC(C)CCCNC(=O)C(N)C(C)CC)c2nc(C(C)(C)C)ccc12 (stereo not drawn) ?
> 20 mg/L

###

- System: MRSA (ATCC33591)
- procedure_summary: in vitro antibacterial activity
- Format: cell-based, methicillin-resistant Staphylococcus aureus
- experimental_setup: methicillin-resistant S. aureus; highest test concentration 20 μg/mL
metric_name: MIC, MRSA

compound: CCCCCCOc1c(OC)cc(NC(C)CCCNC(=O)C2CCCN2)c2nc(C(C)(C)C)ccc12 (stereo not shown)
MIC, MRSA: 5.00 µg/mL

API: the following record is the query input.
I am curious: what MIC, MRSA value has been reported for CCCCCCCOc1c(OC)cc(NC(C)CCCNC(=O)C2CCCN2)c2nc(C(C)(C)C)ccc12 (stereo not shown) ?
5.00 µg/mL

###

- System: M. intracellulare (ATCC23068)
- procedure_summary: in vitro antibacterial activity, modified alamarBlue procedure
- Assay type: cell-based, Mycobacterium intracellulare
- experimental_setup: highest test concentration 20 μg/mL
Hi there, I'd appreciate the recorded MBC (minimum bactericidal concentration), M. intracellulare for every entry that follows.
One number for each entry, in µg/mL.

molecule: CCCCCCCOc1c(OC)cc(NC(C)CCCNC(=O)C2CCCN2)c2nc(C(C)(C)C)ccc12 (stereo not shown)
endpoint_value: 20.00

API: the following record is the query input.
I am curious: what MBC (minimum bactericidal concentration), M. intracellulare value has been reported for CCCCCCOc1c(OC)cc(NC(C)CCCNC(=O)C2CCCN2)c2nc(C(C)(C)C)ccc12 (stereo not shown) ?
10.00

###

- Tested on: C. albicans ATCC90028
- procedure_summary: in vitro antifungal activity
- Assay type: cell-based, Candida albicans
- experimental_setup: Candida albicans, ATCC90028, read-out: C. albicans IC50
Hi there, I'd appreciate the recorded IC50 for every entry that follows.

compound: CCCCOc1c(OC)cc(NC(C)CCCNC(=O)C(N)CCCN)c2nc(C(C)(C)C)ccc12 (stereo not shown)
IC50: > 20 µg/mL

compound: C[C@@H]1[C@H](O)[C@@H](C)/C=C/C=C/C=C/C=C/C=C/C=C/C=C/[C@H](O[C@@H]2O[C@H](C)[C@@H](O)[C@H](N)[C@@H]2O)C[C@@H]2O[C@](O)(C[C@@H](O)C[C@@H](O)[C@H](O)CC[C@@H](O)C[C@@H](O)CC(=O)O[C@H]1C)C[C@H](O)[C@H]2C(=O)O [amphotericin B (AMP), amphotericin B, reference compound]
IC50: 0.17 µg/mL

compound: CCCCCCCOc1c(OC)cc(NC(C)CCCNC(=O)C(N)CCCN)c2nc(C(C)(C)C)ccc12 (stereo not shown)
IC50: > 20 µg/mL

I am curious: what IC50 value has been reported for CCCCCOc1c(OC)cc(NC(C)CCCNC(=O)C(N)CCCCN)c2nc(C(C)(C)C)ccc12 (stereo not shown) ?
> 20 µg/mL
